- measurement-notes: self-splicing fitness, log relative to wild type (ln ratio); higher = more splicing; Tetrahymena group I intron in knt gene, E. coli kanamycin selection, DiMSum; sequences stand for … in CUCUCU…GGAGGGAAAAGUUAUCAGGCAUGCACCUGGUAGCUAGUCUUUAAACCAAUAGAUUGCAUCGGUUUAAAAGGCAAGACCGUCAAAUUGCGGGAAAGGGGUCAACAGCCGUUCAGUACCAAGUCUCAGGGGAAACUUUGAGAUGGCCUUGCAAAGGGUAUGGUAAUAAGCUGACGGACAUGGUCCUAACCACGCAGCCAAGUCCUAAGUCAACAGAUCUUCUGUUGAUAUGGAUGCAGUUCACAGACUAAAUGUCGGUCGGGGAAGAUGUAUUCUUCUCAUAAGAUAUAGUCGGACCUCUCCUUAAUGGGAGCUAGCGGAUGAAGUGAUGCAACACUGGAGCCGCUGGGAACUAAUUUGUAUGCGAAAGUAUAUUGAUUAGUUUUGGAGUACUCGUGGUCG;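 also: selection with 25 µg/mL kanamycin versus none on LB agar overnight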
- test-settings: 37 °C
Kindly supply the reported self-splicing fitness (ln) values for the records listed here.
# respond with the number and nothing more

Query block: For the sequence GGUUAGCAAUAUUACGCAGG , report self-splicing fitness (ln).
Result block: -2.05

Query block: For the sequence GAACAGCAAUAUUACGGGAA , report self-splicing fitness (ln).
Result block: 0.0433

Query block: For the sequence UCAUAGCAAUAUUACGGUCU , report self-splicing fitness (ln).
Result block: -2.31

Query block: For the sequence GAAAAGCAAUAUUACGGAGC , report self-splicing fitness (ln).
Result block: -0.743

Query block: For the sequence ACGUAGCAAUAUUACGACGC , report self-splicing fitness (ln).
Result block: -0.563

Query block: For the sequence AAGUAGCAAUAUUACGGUAA , report self-splicing fitness (ln).
Result block: -0.903

Query block: For the sequence CAAUAGCAAUAUUACGCAGG , report self-splicing fitness (ln).
Result block: -0.433

Query block: For the sequence ACUAAGCAAUAUUACGAGGC , report self-splicing fitness (ln).
Result block: -2.48

Query block: For the sequence GCUCAGCAAUAUUACGACGU , report self-splicing fitness (ln).
Result block: 0.267

Query block: For the sequence GCGGAGCAAUAUUACGAUAG , report self-splicing fitness (ln).
Result block: -2.67

Query block: For the sequence AGGGAGCAAUAUUACGUAAG , report self-splicing fitness (ln).
Result block: -2.28

Query block: For the sequence UAUUAGCAAUAUUACGCGUG , report self-splicing fitness (ln).
Result block: -0.463

Query block: For the sequence CGUGAGCAAUAUUACGUGUG , report self-splicing fitness (ln).
Result block: -0.501

Query block: For the sequence AGCAAGCAAUAUUACGCGAC , report self-splicing fitness (ln).
Result block: -2.35

Query block: For the sequence ACUUAGCAAUAUUACGUUUU , report self-splicing fitness (ln).
Result block: -1.93

Query block: For the sequence AGUUAGCAAUAUUACGGCAA , report self-splicing fitness (ln).
Result block: 0.163

Query block: For the sequence AGCUAGCAAUAUUACGUUAU , report self-splicing fitness (ln).
Result block: -2.19

Query block: For the sequence CUUAAGCAAUAUUACGGAAC , report self-splicing fitness (ln).
Result block: -1.89

Query block: For the sequence AGGAAGCAAUAUUACGGGUU , report self-splicing fitness (ln).
Result block: -1.96

Query block: For the sequence AACUAGCAAUAUUACGGCAG , report self-splicing fitness (ln).
Result block: -0.755

Query block: For the sequence UCUUAGCAAUAUUACGUGCA , report self-splicing fitness (ln).
Result block: -1.07

Query block: For the sequence UCGUAGCAAUAUUACGUGAG , report self-splicing fitness (ln).
Result block: -1.35

Query block: For the sequence ACGGAGCAAUAUUACGGAUC , report self-splicing fitness (ln).
Result block: -2.79

Query block: For the sequence UUUUAGCAAUAUUACGGUGG , report self-splicing fitness (ln).
Result block: -1.16

Query block: For the sequence GGUGAGCAAUAUUACGUGGA , report self-splicing fitness (ln).
Result block: -3.3

Query block: For the sequence GUCAAGCAAUAUUACGUAUC , report self-splicing fitness (ln).
Result block: -0.284

Query block: For the sequence CGCCAGCAAUAUUACGGGCG , report self-splicing fitness (ln).
Result block: -2.94

Query block: For the sequence UACAAGCAAUAUUACGGCAU , report self-splicing fitness (ln).
Result block: -0.705

Query block: For the sequence GUUUAGCAAUAUUACGGGUC , report self-splicing fitness (ln).
Result block: -1.73

Query block: For the sequence AAAAAGCAAUAUUACGCAAC , report self-splicing fitness (ln).
Result block: -1.99

Query block: For the sequence CAUGAGCAAUAUUACGUGCU , report self-splicing fitness (ln).
Result block: -2.39

Query block: For the sequence CCCGAGCAAUAUUACGCGAG , report self-splicing fitness (ln).
Result block: -2.46

Query block: For the sequence CGACAGCAAUAUUACGCCAG , report self-splicing fitness (ln).
Result block: -0.84

Query block: For the sequence AGCUAGCAAUAUUACGAUAU , report self-splicing fitness (ln).
Result block: 0.27

Query block: For the sequence CAUGAGCAAUAUUACGAUUC , report self-splicing fitness (ln).
Result block: -1.66

Query block: For the sequence GCCCAGCAAUAUUACGUAUU , report self-splicing fitness (ln).
Result block: -0.786

Query block: For the sequence AUAGAGCAAUAUUACGAUAU , report self-splicing fitness (ln).
Result block: 1.04

Query block: For the sequence CGCUAGCAAUAUUACGGGGC , report self-splicing fitness (ln).
Result block: -2.29

Query block: For the sequence AGCUAGCAAUAUUACGGCUA , report self-splicing fitness (ln).
Result block: -0.754

Query block: For the sequence UCAAAGCAAUAUUACGCGUG , report self-splicing fitness (ln).
Result block: -0.871

Query block: For the sequence UGACAGCAAUAUUACGUGCA , report self-splicing fitness (ln).
Result block: 0.394

Query block: For the sequence CGACAGCAAUAUUACGAUCU , report self-splicing fitness (ln).
Result block: 0.552

Query block: For the sequence CGAUAGCAAUAUUACGAUCA , report self-splicing fitness (ln).
Result block: 0.441

Query block: For the sequence ACCGAGCAAUAUUACGUUAC , report self-splicing fitness (ln).
Result block: -2.66

Query block: For the sequence GGUAAGCAAUAUUACGAUAA , report self-splicing fitness (ln).
Result block: -0.994

Query block: For the sequence UGUAAGCAAUAUUACGGGAC , report self-splicing fitness (ln).
Result block: -2.62

Query block: For the sequence AAUCAGCAAUAUUACGUCAA , report self-splicing fitness (ln).
Result block: -0.614

Query block: For the sequence AAAGAGCAAUAUUACGAUCC , report self-splicing fitness (ln).
Result block: -1.6

Query block: For the sequence AACGAGCAAUAUUACGUAUU , report self-splicing fitness (ln).
Result block: -1.85

Query block: For the sequence GAAUAGCAAUAUUACGCGGC , report self-splicing fitness (ln).
Result block: -2.38

Query block: For the sequence CACAAGCAAUAUUACGUAAU , report self-splicing fitness (ln).
Result block: -1.65

Query block: For the sequence ACGAAGCAAUAUUACGGAGA , report self-splicing fitness (ln).
Result block: -2.42

Query block: For the sequence UACAAGCAAUAUUACGGCCC , report self-splicing fitness (ln).
Result block: -1.35

Query block: For the sequence ACGUAGCAAUAUUACGCCAA , report self-splicing fitness (ln).
Result block: -1.5

Query block: For the sequence AGCUAGCAAUAUUACGCGGG , report self-splicing fitness (ln).
Result block: -1.53

Query block: For the sequence GGCGAGCAAUAUUACGUCCG , report self-splicing fitness (ln).
Result block: -2.39

Query block: For the sequence CUAUAGCAAUAUUACGGCGA , report self-splicing fitness (ln).
Result block: -0.914

Query block: For the sequence UAAGAGCAAUAUUACGAUAC , report self-splicing fitness (ln).
Result block: -3.09

Query block: For the sequence UUAGAGCAAUAUUACGCUGC , report self-splicing fitness (ln).
Result block: -2.29
